Recorded solubility change mitosis (log2) by entry
System: HeLa Kyoto
Assay: solubility change mitosis vs G1/S (difference of NP-40 vs SDS log2 ratios) (log2 ratio difference); higher = more soluble in mitosis
A bare number is all that is needed in reply.

These solved cases illustrate the format of a correct answer.
input: For MAVNVYSTSVTSDNLSRHDMLAWINESLQLNLTKIEQLCSGAAYCQFMDMLFPGSIALKKVKFQAKLEHEYIQNFKILQAGFKRMGVDKIIPVDKLVKGKFQDNFEFVQWFKKFFDANYDGKDYDPVAARQGQETAVAPSLVAPALNKPKKPLTSSSAAPQRPISTQRTAAAPKAGPGVVRKNPGVGNGDDEAAELMQQVNVLKLTVEDLEKERDFYFGKLRNIELICQENEGENDPVLQRIVDILYATDEGFVIPDEGGPQEEQEEY [MAPRE1] , write its solubility change mitosis (log2).
output: 0.204

input: Answer with the recorded solubility change mitosis (log2) of MVDRLANSEANTRRISIVENCFGAAGQPLTIPGRVLIGEGVLTKLCRKKPKARQFFLFNDILVYGNIVIQKKKYNKQHIIPLENVTIDSIKDEGDLRNGWLIKTPTKSFAVYAATATEKSEWMNHINKCVTDLLSKSGKTPSNEHAAVWVPDSEATVCMRCQKAKFTPVNRRHHCRKCGFVVCGPCSEKRFLLPSQSSKPVRICDFCYDLLSAGDMATCQPARSDSYSQSLKSPLNDMSDDDDDDDSSD [PLEKHF2] only.
output: -0.0311

Then there is this sequence:
input: Supply recorded solubility change mitosis (log2) for MGFGDLKSPAGLQVLNDYLADKSYIEGYVPSQADVAVFEAVSSPPPADLCHALRWYNHIKSYEKEKASLPGVKKALGKYGPADVEDTTGSGATDSKDDDDIDLFGSDDEEESEEAKRLREERLAQYESKKAKKPALVAKSSILLDVKPWDDETDMAKLEECVRSIQADGLVWGSSKLVPVGYGIKKLQIQCVVEDDKVGTDMLEEQITAFEDYVQSMDVAAFNKI [EEF1B2] here.
output: 0.236

----------
Listed sequences paired with reported solubility in G1/S (log2)
Test system: HeLa Kyoto
Test: solubility in G1/S (NP-40 vs SDS abundance) (log2 ratio); higher = more soluble
Settings: cell cycle stage: G1/S
API note: the answer field is a bare number with no unit suffix.

input: Query solubility in G1/S (log2) for MGNIFGNLLKSLIGKKEMRILMVGLDAAGKTTILYKLKLGEIVTTIPTIGFNVETVEYKNISFTVWDVGGQDKIRPLWRHYFQNTQGLIFVVDSNDRERVNEAREELMRMLAEDELRDAVLLVFANKQDLPNAMNAAEITDKLGLHSLRHRNWYIQATCATSGDGLYEGLDWLANQLKNKK [ARF3]
output: -0.169

input: Provide solubility in G1/S (log2) value for the following sequence: MLSESSSFLKGVMLGSIFCALITMLGHIRIGHGNRMHHHEHHHLQAPNKEDILKISEDERMELSKSFRVYCIILVKPKDVSLWAAVKETWTKHCDKAEFFSSENVKVFESINMDTNDMWLMMRKAYKYAFDKYRDQYNWFFLARPTTFAIIENLKYFLLKKDPSQPFYLGHTIKSGDLEYVGMEGGIVLSVESMKRLNSLLNIPEKCPEQGGMIWKISEDKQLAVCLKYAGVFAENAEDADGKDVFNTKSVGLSIKEAMTYHPNQVVEGCCSDMAVTFNGLTPNQMHVMMYGVYRLRAFGHIFNDALVFLPPNGSDND [C1GALT1C1]
output: 0.0342

input: Supply solubility in G1/S (log2) value. Item: MGARASGGPLARAGLLLLLLLLLLLGLLAPGAQGARGRGGAEKNSYRRTVNTFSQSVSSLFGEDNVRAAQKFLARLTERFVLGVDMFVETLWKVWTELLDVLGLDVSNLSQYFSPASVSSSPARALLLVGVVLLAYWFLSLTLGFTFSVLHVVFGRFFWIVRVVLFSMSCVYILHKYEGEPENAVLPLCFVVAVYFMTGPMGFYWRSSPSGPSNPSNPSVEEKLEHLEKQVRLLNIRLNRVLESLDRSKDK [BRI3BP]
output: -0.138

input: Name the recorded solubility in G1/S (log2) of the item MTTAARPTFEPARGGRGKGEGDLSQLSKQYSSRDLPSHTKIKYRQTTQDAPEEVRNRDFRRELEERERAAAREKNRDRPTREHTTSSSVSKKPRLDQIPAANLDADDPLTDEEDEDFEEESDDDDTAALLAELEKIKKERAEEQARKEQEQKAEEERIRMENILSGNPLLNLTGPSQPQANFKVKRRWDDDVVFKNCAKGVDDQKKDKRFVNDTLRSEFHKKFMEKYIK [CWC15] in your answer.
output: 0.0823

input: Retrieve solubility in G1/S (log2) measured for MENHKSNNKENITIVDISRKINQLPEAERNLLENGSVYVGLNAALCGLIANSLFRRILNVTKARIAAGLPMAGIPFLTTDLTYRCFVSFPLNTGDLDCETCTITRSGLTGLVIGGLYPVFLAIPVNGGLAARYQSALLPHKGNILSYWIRTSKPVFRKMLFPILLQTMFSAYLGSEQYKLLIKALQLSEPGKEIH [TMEM126A] and print it.
output: 0.245

Others:
input: Hello, please tell me recorded solubility in G1/S (log2) for this one: MAGNFDSEERSSWYWGRLSRQEAVALLQGQRHGVFLVRDSSTSPGDYVLSVSENSRVSHYIINSSGPRPPVPPSPAQPPPGVSPSRLRIGDQEFDSLPALLEFYKIHYLDTTTLIEPVSRSRQGSGVILRQEEAEYVRALFDFNGNDEEDLPFKKGDILRIRDKPEEQWWNAEDSEGKRGMIPVPYVEKYRPASASVSALIGGNQEGSHPQPLGGPEPGPYAQPSVNTPLPNLQNGPIYARVIQKRVPNAYDKTALALEVGELVKVTKINVSGQWEGECNGKRGHFPFTHVRLLDQQNPDEDFS [CRK]
output: 0.342

Reference source for all entries: the supplement of paper PMC5998384
